test system: GM15850; assay: Cytoprotective activity in human GM15850 cells assessed as glutathione depletion-induced reduction of cell viability at 5 uM after 17 hrs by trypan blue exclusion assay relative to control; format: functional
propertyLabel: Activity
Kindly write the number and append the unit.

// solved cases for Activity follow
INSERT INTO assay_data (entrysmiles, propertylabel, testvalue) VALUES
  ('CCCCCCCCCCCCCC1=C(O)C(=O)C=C(NCCCC(=O)OC(C)(C)C)C1=O', 'Activity', '50%'),
  ('CCCCCCCCCCCCCC1=C(OC)C(=O)C=C(NCCCC(=O)OC(C)(C)C)C1=O', 'Activity', '93%'),
  ('CCCCCCCCCCCCCC1=C(OC)C(=O)C=C(NCCCC(=O)O)C1=O', 'Activity', '74%');

Now, please, on to the next molecule.
Ask: # lookup: Activity of "CCCCCCCCCCCCCC1=C(O)C(=O)C=C(NCCCC(=O)O)C1=O"
Result: 36%

* * *

assay: Antioxidant activity in human GM15850 cells assessed as inhibition of glutathione depletion-induced lipid peroxidation at 10 uM after 16 hrs using C11-BODIPY581/591 by FACS analysis relative to control; format: functional; parameters: scale not given: the % may be the effect or the level left
Here the recorded Activity is given for each entry.
Just the number in %, nothing appended.

INSERT INTO assay_data (entrysmiles, propertylabel, testvalue) VALUES
  ('CCCCCCCCCCCCCC1=C(O)C(=O)C=C(NCCCC(=O)OC(C)(C)C)C1=O', 'Activity', 37),
  ('CCCCCCCCCCCCCC1=C(OC)C(=O)C=C(NCCCC(=O)O)C1=O', 'Activity', 51),
  ('CCCCCCCCCCCCCC1=C(OC)C(=O)C=C(NCCCC(=O)OC(C)(C)C)C1=O', 'Activity', 86);

Now, please, on to the next molecule.
Ask: # lookup: Activity of "CCCCCCCCCCCCCC1=C(O)C(=O)C=C(NCCCC(=O)O)C1=O"
Result: 24
